Measured values drawn from patent US20150094294A1 for this set.

System: P. falciparum 3D7 (chloroquine-sensitive)
Experiment: Anti-malarial activity, P. falciparum 3D7 culture, 72 hour, DNA content by flow cytometry
Format: cell-based
Conditions: synchronized ring-stage parasites
pIC50: −log10 of the molar value.
property: pIC50

> print(dat)
                                   compound  property  valueobserved
1  CN1CCN(c2ccc(-c3ccc(-c4ccc(N5CCN(C)CC5)cc4)s3)cc2)CC1 [Compound 260]     pIC50         < 7.00
2  NCCc1cccc(-c2ccc(-c3cccc(CCN)c3)o2)c1 [Compound 237]     pIC50         < 5.70
3  CCn1c2ccc(N3CCNCC3)cc2c2cc(N3CCNCC3)ccc21 [Compound 293]     pIC50         < 7.00

----------
Assay: Cytotoxicity against 3T3 cells
Format: cell-based
Details: mouse, 3T3 cells; read-out: Cytotoxicity 3T3 EC50
pEC50: −log10 of the molar value.
Recorded pEC50 by entry
property: pEC50

> print(dat)
                               smilesstring  valueobserved
1  COc1ccc(C(=O)Nc2cc(C(F)(F)F)cc(NC(=O)c3cc(C(=O)Nc4cc(C(F)(F)F)cc(NC(=O)c5ccc(OC)c(OC)c5)c4SCCN)ncn3)c2SCCN)cc1OC         < 2.00
2  O=C(Nc1ccc(O[C@@H]2CCNC2)nc1)c1cc(C(=O)Nc2ccc(O[C@@H]3CCNC3)nc2)ncn1         < 3.00
3  NCCc1cccc(NC(=O)c2cccc(C(=O)Nc3cccc(CCN)c3)n2)c1         < 3.00

----------
Reported EC50 by item:
Tested on: HepG2 cells
Test: Cytotoxicity against HepG2 cells
Type: cell-based
property: EC50 (µM)

> print(dat)
                                    compound   systemname  property  relationaloperator  valueobserved
 1  O=C(Nc1ccc(N2CCNCC2)cc1)c1cccc(C(=O)Nc2ccc(N3CCNCC3)cc2)n1 [Compound 211]  HepG2 cells      EC50                   >           1000
 2  N=C(N)NCCc1cccc(-c2cncc(-c3ccc(-c4cncc(-c5cccc(CCNC(=N)N)c5)c4)cc3)c2)c1 [Compound 231]  HepG2 cells      EC50                   >           1000
 3  Cn1c(-c2cccc(CCN)c2)cnc1-c1cccc(CCN)c1 [Compound 245]  HepG2 cells      EC50                   >           1000
 4  NCCSc1nc(-c2cccc(CCN)c2)cc(-c2cccc(CCN)c2)n1 [Compound 220]  HepG2 cells      EC50                   >           1000
 5  CCn1c2ccc(N3CCC(N(C)C)CC3)cc2c2cc(N3CCC(N(C)C)CC3)ccc21 [Compound 298]  HepG2 cells      EC50                   >           1000
 6  NCCc1cccc(-c2cncc(-c3ccc(-c4cncc(-c5cccc(CCN)c5)c4)s3)c2)c1 [Compound 223]  HepG2 cells      EC50                   =             82
 7  O=C(Nc1ccc(OC2CCNCC2)cc1)c1cc(C(=O)Nc2ccc(OC3CCNCC3)cc2)ncn1 [Compound 199]  HepG2 cells      EC50                   =            353
 8  NCCc1cccc(-c2cn(-c3cccc(CCN)c3)nn2)c1 [Compound 250]  HepG2 cells      EC50                   >           1000
 9  N=C(N)NCCSc1ccc(NC(=O)Nc2ccc(SCCCN)c(C(F)(F)F)c2)cc1C(F)(F)F [Compound 275]  HepG2 cells      EC50                   =            342
10  CCN(CC)CCN(CCN)c1c(NC(=O)Nc2cc(C(F)(F)F)cc([N+](=O)[O-])c2N(CCN)CCN(CC)CC)cc(C(F)(F)F)cc1[N+](=O)[O-] [Compound 123]  HepG2 cells      EC50                   =            433
11  CCn1c2ccc(N3CCNCC3)cc2c2cc(N3CCNCC3)ccc21 [Compound 293]  HepG2 cells      EC50                   >           1000
12  CCN(CC)CCN(CCN)c1c(F)cc(C(F)(F)F)cc1NC(=O)Nc1cc(C(F)(F)F)cc(F)c1N(CCN)CCN(CC)CC [Compound 127]  HepG2 cells      EC50                   =            413
13  CCn1c2ccc(C3=CCN(C(=N)N)CC3)cc2c2cc(C3=CCN(C(=N)N)CC3)ccc21 [Compound 287]  HepG2 cells      EC50                   =            200
14  C[N+]1(C)CCN(c2ccc(-c3ccc(-c4ccc(N5CC[N+](C)(C)CC5)cc4)o3)cc2)CC1 [Compound 264]  HepG2 cells      EC50                   >           1000
15  O=C(Nc1ccc(O[C@@H]2CCNC2)c(C(F)(F)F)c1)c1cc(C(=O)Nc2ccc(O[C@@H]3CCNC3)c(C(F)(F)F)c2)ncn1 [Compound 187]  HepG2 cells      EC50                   =            130
16  N=C(N)NCCc1cccc(-c2cn(-c3cccc(CCNC(=N)N)c3)nn2)c1 [Compound 256]  HepG2 cells      EC50                   >           1000

----------
# reported EC50; entries follow
Assay: Cytotoxicity against HepG2 cells
Format: cell-based
Conditions: human, HepG2 cells; read-out: Cytotoxicity HepG2 EC50
property: EC50

> print(dat)
                                   compound  valueobserved
1  N=C(N)NCCCCC(=O)Nc1ccc(Oc2cccc(Oc3ccc(NC(=O)CCCCNC(=N)N)cc3)c2)cc1       > 0.1 mM
2  N=C(N)NCCCCC(=O)Nc1ccc(-c2ccc(NC(=O)CCCCNC(=N)N)c(C(F)(F)F)c2)cc1C(F)(F)F         > 2 mM
3  N=C(N)NCCCCC(=O)Nc1cc(C(F)(F)F)cc(NC(=O)c2cc(C(=O)Nc3cc(C(F)(F)F)cc(NC(=O)CCCCNC(=N)N)c3SCCC(=O)O)ncn2)c1SCCC(=O)O       > 0.1 mM
4  NC1CCC(N2CCc3ccc(NC(=O)c4cc(C(=O)Nc5ccc6c(c5)CCN(C5CCC(N)CC5)CC6)ncn4)cc3CC2)CC1 (stereo not shown)         > 1 mM
5  O=C(Nc1ccc(O[C@@H]2CCNC2)cc1)c1cncc(C(=O)Nc2ccc(O[C@@H]3CCNC3)cc2)c1         > 1 mM
6  CCn1c2ccc(N3CCN(C(=N)N)CC3)cc2c2cc(N3CCN(C(=N)N)CC3)ccc21         > 1 mM
7  COc1cc(SCCNC(=N)N)c(C(F)(F)F)cc1NC(=O)c1cc(C(=O)Nc2cc(C(F)(F)F)c(SCCNC(=N)N)cc2OC)ncn1         > 1 mM

----------
Tested on: 3T3 cells
Assay: Cytotoxicity against 3T3 cells
Assay type: cell-based
property: log10(EC50) (log10 of the value in µM)

> print(dat)
                                smilesstring     property  valueobserved
 1  N=C(N)NCCCCCC(=O)Nc1cc(C(F)(F)F)cc(NC(=O)c2cc(C(=O)Nc3cc(C(F)(F)F)cc(NC(=O)CCCCCNC(=N)N)c3SCCN)ncn2)c1SCCN  log10(EC50)           1.90
 2  N=C(N)NCCc1cccc(-c2ccc(-c3cccc(CCNC(=N)N)c3)s2)c1  log10(EC50)           2.03
 3  N=C(N)NCCCOc1cccc(-c2cncc(-c3cccc(OCCCNC(=N)N)c3)c2)c1  log10(EC50)           2.47
 4  N=C(N)NCCc1cccc(NC(=O)c2cc(C(=O)Nc3cccc(CCNC(=N)N)c3)nc(SCCN)n2)c1  log10(EC50)           2.52
 5  CC(C)(C)c1ccc(NC(=O)CCCCNC(=N)N)c(-c2ccc(-c3cc(C(C)(C)C)ccc3NC(=O)CCCCNC(=N)N)cc2)c1  log10(EC50)           1.45
 6  CCn1c2ccc(N3CCNCC3)cc2c2cc(N3CCNCC3)ccc21  log10(EC50)           2.67
 7  NCCSc1c(NC(=O)c2cccnc2)cc(C(F)(F)F)cc1NC(=O)c1cc(C(=O)Nc2cc(C(F)(F)F)cc(NC(=O)c3cccnc3)c2SCCN)ncn1  log10(EC50)           1.32
 8  COc1cc(SCCN)c(C(F)(F)F)cc1NC(=O)Nc1cc(C(F)(F)F)c(SCCN)cc1OC  log10(EC50)           1.49
 9     c1cc2sc3ccc(N4CCNCC4)cc3c2cc1N1CCNCC1  log10(EC50)           2.54
10  NCCc1cccc(-c2cc(-c3ccc(-c4cc(-c5cccc(CCN)c5)ncn4)s3)ncn2)c1  log10(EC50)           0.48
11  CCn1c2ccc(C3CCNCC3)cc2c2cc(C3CCNCC3)ccc21  log10(EC50)           2.18
12     NCCc1cccc(-c2cnc(-c3cccc(CCN)c3)s2)c1  log10(EC50)           1.85
13  Cn1c(-c2ccc(CCCNC(=N)N)cc2)cnc1-c1ccc(CCCNC(=N)N)cc1  log10(EC50)           2.81
14  CCn1c2ccc(C3=CCN(C(=N)N)CC3)cc2c2cc(C3=CCN(C(=N)N)CC3)ccc21  log10(EC50)           1.92
15  N=C(N)N1CC[C@@H](Oc2ccc(NC(=O)c3cc(C(=O)Nc4ccc(O[C@@H]5CCN(C(=N)N)C5)c(C(F)(F)F)c4)ncn3)cc2C(F)(F)F)C1  log10(EC50)           1.52
16  N=C(N)NCCCOc1cc(OCCCNC(=N)N)c(-c2ccccc2)cc1-c1ccccc1  log10(EC50)           1.87
